Reference for the values: patent US9371320B2

Please respond with reported inhibition at 1 µM for every item in the list.
target: Tyk2 (Homo sapiens, UniProt P29597); construct: purchased Invitrogen; assay: Tyk2 enzyme inhibition test (LANCE method); format: biochemical; settings: test compound 1 μM; read-out: Inhibitory rate (%) Tyk2 1 μM
Sequence (P29597 whole entry): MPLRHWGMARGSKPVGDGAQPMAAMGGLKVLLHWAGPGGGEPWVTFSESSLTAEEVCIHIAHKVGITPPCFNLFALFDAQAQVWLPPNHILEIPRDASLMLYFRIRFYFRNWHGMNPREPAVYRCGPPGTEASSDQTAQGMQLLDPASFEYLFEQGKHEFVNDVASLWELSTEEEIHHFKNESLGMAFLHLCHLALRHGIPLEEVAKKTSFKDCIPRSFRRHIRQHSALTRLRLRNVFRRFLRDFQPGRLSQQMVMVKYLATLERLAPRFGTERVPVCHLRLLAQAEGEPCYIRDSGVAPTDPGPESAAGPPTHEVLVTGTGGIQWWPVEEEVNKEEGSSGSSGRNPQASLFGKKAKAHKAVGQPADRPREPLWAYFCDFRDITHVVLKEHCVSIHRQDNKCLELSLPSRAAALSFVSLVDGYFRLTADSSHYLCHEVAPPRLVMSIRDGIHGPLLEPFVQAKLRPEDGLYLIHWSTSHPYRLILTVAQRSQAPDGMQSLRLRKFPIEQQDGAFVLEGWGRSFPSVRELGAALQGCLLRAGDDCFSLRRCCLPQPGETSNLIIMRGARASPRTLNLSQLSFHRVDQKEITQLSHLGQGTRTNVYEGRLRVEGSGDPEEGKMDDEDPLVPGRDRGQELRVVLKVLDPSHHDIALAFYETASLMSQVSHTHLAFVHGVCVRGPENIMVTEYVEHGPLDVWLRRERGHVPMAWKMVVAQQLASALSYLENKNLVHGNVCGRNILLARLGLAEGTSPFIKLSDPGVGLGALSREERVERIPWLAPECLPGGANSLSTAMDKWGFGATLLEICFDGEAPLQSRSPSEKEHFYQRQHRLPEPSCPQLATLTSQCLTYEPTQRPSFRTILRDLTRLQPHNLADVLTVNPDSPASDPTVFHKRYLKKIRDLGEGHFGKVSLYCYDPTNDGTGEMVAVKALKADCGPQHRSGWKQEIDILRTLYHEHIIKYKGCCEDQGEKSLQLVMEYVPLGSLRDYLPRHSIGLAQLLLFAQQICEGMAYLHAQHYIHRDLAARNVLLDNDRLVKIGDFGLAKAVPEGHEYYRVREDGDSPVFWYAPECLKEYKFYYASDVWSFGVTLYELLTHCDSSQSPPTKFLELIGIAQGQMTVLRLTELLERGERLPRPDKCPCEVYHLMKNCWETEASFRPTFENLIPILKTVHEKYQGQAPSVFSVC
Quick note: give the figure in %, leave out the unit.

Record `NS(=O)(=O)c1ccc(-c2nn(CC3COC3)c3cc[nH]c(=O)c23)cc1` has Tyk2 (Homo sapiens, UniProt P29597) inhibition at 1 µM equal to 66

Bench note, Tyk2 (Homo sapiens, UniProt P29597): entry `O=c1[nH]ccc2c1c(-c1ccsc1)cn2C1CCCC1` , its inhibition at 1 µM = 96

# lookup: `NC(=O)Cc1cc(-c2nn(-c3c(F)cccc3F)c3c(Cl)c[nH]c(=O)c23)cs1` on Tyk2 (Homo sapiens, UniProt P29597), inhibition at 1 µM = 98

Summary: `CC(C)(C)n1nc(Nc2cccc(S(N)(=O)=O)c2)c2c(=O)[nH]ccc21` , Tyk2 (Homo sapiens, UniProt P29597), inhibition at 1 µM = 70

Per the reported Tyk2 (Homo sapiens, UniProt P29597) data, `NC(=O)Cc1cccc(-c2nn(C3CCCC3)c3cc[nH]c(=O)c23)c1` has inhibition at 1 µM of 91

Field inhibition at 1 µM (system: Tyk2 (Homo sapiens, UniProt P29597)) for entry `NC(=O)c1cc(-c2cn(C3CCCC3)c3c(C(N)=O)c[nH]c(=O)c23)cs1` = 81

Lab note: compound `O=c1[nH]ccc2c1c(-c1ccccc1)nn2C1CCCC1` tested on Tyk2 (Homo sapiens, UniProt P29597); recorded inhibition at 1 µM was 91

Measured inhibition at 1 µM (Tyk2 (Homo sapiens, UniProt P29597)), entry `O=C1CCCN1c1ccc(-c2nn(-c3c(F)cccc3F)c3c(Cl)c[nH]c(=O)c23)cc1` : 100

# value of inhibition at 1 µM, Tyk2 (Homo sapiens, UniProt P29597), item `CC(C)(C)n1nc(-c2ccc(S(N)(=O)=O)cc2)c2c(=O)[nH]ccc21` = 85

Reported inhibition at 1 µM (Tyk2 (Homo sapiens, UniProt P29597)) for entry `O=C1Cc2cc(-c3nn(C4CCCC4)c4cc[nH]c(=O)c34)ccc2N1` is 91

Short answer on Tyk2 (Homo sapiens, UniProt P29597) for `O=c1[nH]ccc2c1c(-c1ccccc1)cn2C1CCCC1` , inhibition at 1 µM: 51

For `O=c1[nH]ccc2c1c(-c1ccc(OC(F)(F)F)cc1)nn2C1CCCC1` on Tyk2 (Homo sapiens, UniProt P29597), measured inhibition at 1 µM was 74

Kindly note: Tyk2 (Homo sapiens, UniProt P29597), `NS(=O)(=O)c1ccc(-c2nn(-c3ccccc3Cl)c3cc[nH]c(=O)c23)cc1` , inhibition at 1 µM value reported: 99

Entry `NS(=O)(=O)c1ccc(-c2nn(-c3ccccc3F)c3cc[nH]c(=O)c23)cc1` ; assay system Tyk2 (Homo sapiens, UniProt P29597); inhibition at 1 µM recorded at 99

Field inhibition at 1 µM (system: Tyk2 (Homo sapiens, UniProt P29597)) for entry `O=c1[nH]ccc2c(-c3ccccc3)nn(-c3ccsc3)c12` = 66

Tested on Tyk2 (Homo sapiens, UniProt P29597), the item `O=C(NCCO)c1ccc(-c2nn(-c3c(F)cccc3F)c3c(Cl)c[nH]c(=O)c23)cc1` showed inhibition at 1 µM equal to 100

`Cn1cc(-c2cn(C3CCCC3)c3c(C#N)c[nH]c(=O)c23)cn1` tested on Tyk2 (Homo sapiens, UniProt P29597) gave inhibition at 1 µM: 99

With Tyk2 (Homo sapiens, UniProt P29597) as the test system, `CN(C)C(=O)c1cc(-c2cn(C3CCCC3)c3c(C#N)c[nH]c(=O)c23)cs1` showed inhibition at 1 µM of 98

###

target: JAK1 (Homo sapiens); construct: purchased Invitrogen; experiment: JAK1 enzyme inhibition test (LANCE method); assay type: biochemical; conditions: test compound 1 μM; read-out: Inhibitory rate (%) JAK1 1 μM
Sequence (P23458 whole entry): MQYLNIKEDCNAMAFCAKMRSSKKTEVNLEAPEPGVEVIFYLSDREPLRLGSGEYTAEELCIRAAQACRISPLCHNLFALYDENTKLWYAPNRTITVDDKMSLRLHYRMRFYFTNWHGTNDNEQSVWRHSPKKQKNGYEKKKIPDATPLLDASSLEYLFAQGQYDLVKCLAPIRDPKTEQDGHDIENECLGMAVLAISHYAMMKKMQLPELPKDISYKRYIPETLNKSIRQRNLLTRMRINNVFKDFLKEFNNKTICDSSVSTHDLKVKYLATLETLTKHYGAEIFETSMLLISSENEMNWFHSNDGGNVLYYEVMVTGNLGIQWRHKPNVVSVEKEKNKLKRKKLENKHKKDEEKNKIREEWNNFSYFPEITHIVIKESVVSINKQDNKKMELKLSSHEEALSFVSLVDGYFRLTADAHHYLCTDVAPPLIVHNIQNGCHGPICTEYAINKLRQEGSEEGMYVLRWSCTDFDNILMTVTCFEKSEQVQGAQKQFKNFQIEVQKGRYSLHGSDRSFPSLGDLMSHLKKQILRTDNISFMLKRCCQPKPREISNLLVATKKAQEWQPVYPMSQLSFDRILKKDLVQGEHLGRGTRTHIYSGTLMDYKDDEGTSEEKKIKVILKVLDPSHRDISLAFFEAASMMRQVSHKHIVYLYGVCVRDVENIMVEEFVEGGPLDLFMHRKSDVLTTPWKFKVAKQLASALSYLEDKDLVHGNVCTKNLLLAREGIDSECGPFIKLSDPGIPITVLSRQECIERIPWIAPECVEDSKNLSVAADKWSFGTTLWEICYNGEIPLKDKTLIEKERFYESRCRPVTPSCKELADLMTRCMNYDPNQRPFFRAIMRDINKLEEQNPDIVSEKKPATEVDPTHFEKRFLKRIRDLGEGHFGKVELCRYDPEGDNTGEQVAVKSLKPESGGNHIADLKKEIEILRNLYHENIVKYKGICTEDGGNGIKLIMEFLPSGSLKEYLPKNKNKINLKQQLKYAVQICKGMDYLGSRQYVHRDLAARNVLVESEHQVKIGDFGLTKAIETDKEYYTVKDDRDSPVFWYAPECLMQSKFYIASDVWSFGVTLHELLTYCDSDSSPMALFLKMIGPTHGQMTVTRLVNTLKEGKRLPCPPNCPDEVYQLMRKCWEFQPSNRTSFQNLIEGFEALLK
What inhibition at 1 µM was measured for each of the following?
Provide the reading as a plain figure in %.

Just so you know, measured inhibition at 1 µM for N#Cc1c[nH]c(=O)c2c(-c3csc(CC(N)=O)c3)cn(C3CCCC3)c12 [Example 97] came out at 97

inhibition at 1 µM reported for this compound CNC(=O)COc1ccc(-c2nn(-c3c(F)cccc3F)c3c(Cl)c[nH]c(=O)c23)cc1 [Example 221] : 80

Value of inhibition at 1 µM reported for the compound CCC(COC)n1cc(-c2ccc(C(N)=O)cc2)c2c(=O)[nH]ccc21 (centres unmarked) [Example 26] is 20

compound NC(=O)c1cccc(-c2nn(C3CCCC3)c3cc[nH]c(=O)c23)c1 [Example 143] , inhibition at 1 µM observed: 93

Quick note, inhibition at 1 µM for O=C(NCCO)c1ccc(-c2nn(-c3c(F)cccc3F)c3cc[nH]c(=O)c23)cc1 [Example 237] landed at 87

Please fill in: inhibition at 1 µM reported for N#CCc1ccc(-c2nn(C3CCCC3)c3cc[nH]c(=O)c23)cc1 [Example 127] = 99

Reported inhibition at 1 µM for CCC(CC)n1cc(-c2csc(C(N)=O)c2)c2c(=O)[nH]ccc21 [Example 8] was 98

Briefly, inhibition at 1 µM measured for CC(=O)N1CCC(c2ccc(-c3nn(-c4c(F)cccc4F)c4cc[nH]c(=O)c34)cc2)CC1 [Example 301] : 97

###

target: Tyk2 (Homo sapiens); construct: purchased Invitrogen; test: Tyk2 enzyme inhibition test (LANCE method); format: biochemical; details: test compound 1 μM; read-out: Inhibitory rate (%) Tyk2 1 μM
Counter-ions that a name gives are not always drawn.
Answer each item with its documented inhibition at 1 µM.
Please answer in the form of a number followed by its unit of measurement.

So for N#Cc1c[nH]c(=O)c2c(-c3ccccc3)cn(C3CCCC3)c12 [Example 103] , the logged inhibition at 1 µM turned out to be 91%

Just so you know, measured inhibition at 1 µM for Nc1ncc(-c2nn(-c3c(F)cccc3F)c3cc[nH]c(=O)c23)cn1 [Example 300] came out at 83%

inhibition at 1 µM measured on NC(=O)c1cc(-c2nn(C3CCCC3)c3cc[nH]c(=O)c23)cs1 [Example 13] = 99%

Given item NC(=O)Cn1cc(-c2nn(-c3c(F)cccc3F)c3c(Br)c[nH]c(=O)c23)cn1 [Example 175] , the value recorded as its inhibition at 1 µM is 100%

inhibition at 1 µM measured on COC(=O)c1cc(-c2cn(C3CCCC3)c3cc[nH]c(=O)c23)cs1 [Example 3] = 96%

Entry COc1cccc(-c2nn(C3CCCC3)c3cc[nH]c(=O)c23)c1 [Example 47] ; inhibition at 1 µM = 71%

Measured inhibition at 1 µM of CN(C)NC(=O)c1ccc(-c2nn(-c3c(F)cccc3F)c3cc[nH]c(=O)c23)cc1 [Example 289] : 99%

Quick note, inhibition at 1 µM for COCCN(C)c1ccc(-c2nn(-c3c(F)cccc3F)c3c(Cl)c[nH]c(=O)c23)cc1 [Example 241] landed at 98%

Data point: O=c1[nH]cc(Br)c2c1c(-c1cn[nH]c1)nn2-c1c(F)cccc1F [Example 176] ; inhibition at 1 µM = 100%

What the record says about N#Cc1ccc(-c2nn(C3CCCC3)c3cc[nH]c(=O)c23)cc1 [Example 201] : inhibition at 1 µM is 97%

GET /value?item= N#CCc1cccc(-c2cn(C3CCCC3)c3c(C#N)c[nH]c(=O)c23)c1 [Example 109] &field=inhibition at 1 µM returns 94%

What the record says about NC(=O)c1cc(-n2nc(C3CCCC3)c3cc[nH]c(=O)c32)cs1 [Example 117] : inhibition at 1 µM is 98%

Entry O=c1[nH]cc(Cl)c2c1c(-c1cnn(C3CCOCC3)c1)nn2-c1c(F)cccc1F [Example 205] ; inhibition at 1 µM = 97%

For record N#Cc1c[nH]c(=O)c2c(-c3csc(CC(N)=O)c3)cn(C3CCCC3)c12 [Example 97] the listed inhibition at 1 µM is 99%

In plain terms, NC(=O)c1cc(-c2nn(C3CCCC3)c3c(Br)c[nH]c(=O)c23)cs1 [Example 280] has a documented inhibition at 1 µM of 97%

get_value(item= O=c1[nH]cc(Cl)c2c1c(-c1ccc(N3CCS(=O)(=O)CC3)cc1)nn2-c1c(F)cccc1F [Example 242] , readout=inhibition at 1 µM) returns 97%

GET /value?item= O=c1[nH]cc(Cl)c2c1c(-c1ccc(N3CCOCC3)c(F)c1)nn2-c1c(F)cccc1F [Example 206] &field=inhibition at 1 µM returns 100%

The reported inhibition at 1 µM of the compound NC(=O)c1cc(-c2nn(C3CCC(=O)CC3)c3cc[nH]c(=O)c23)cs1 [Example 170] was 98%

Reported inhibition at 1 µM ( N#CCn1cc(-c2cn(C3CCCC3)c3c(C#N)c[nH]c(=O)c23)cn1 [Example 99] ) = 99%

Reported inhibition at 1 µM of O=c1[nH]cc(Br)c2c1c(-c1ccc(N3CCOCC3)cc1)nn2-c1c(F)cccc1F [Example 218] : 99%

Looking up O=C1CCCN1Cc1ccc(-c2nn(-c3c(F)cccc3F)c3cc[nH]c(=O)c23)cc1 [Example 275] , I found its inhibition at 1 µM recorded as 98%

Per the record, CNC(=O)c1cc(F)cc(-c2nn(-c3c(F)cccc3F)c3c(Cl)c[nH]c(=O)c23)c1 [Example 273] has inhibition at 1 µM of 71%

Entry under test: NC(=O)c1cc(F)cc(-c2nn(-c3c(F)cccc3F)c3cc[nH]c(=O)c23)c1 [Example 268] . Its inhibition at 1 µM was 33%

The compound listed as O=c1[nH]ccc2c1c(C1=CCOCC1)nn2C1CCCC1 [Example 42] has a reported inhibition at 1 µM of 51%

Summary for this compound, COc1ccccc1-c1nn(C2CCCC2)c2cc[nH]c(=O)c12 [Example 48] : inhibition at 1 µM is 7%

// recorded inhibition at 1 µM for N#Cc1cccc(-c2nn(C3CCCC3)c3cc[nH]c(=O)c23)c1 [Example 202] : 87%

Measured inhibition at 1 µM, NS(=O)(=O)c1ccc(-c2nn(C3CCOCC3)c3cc[nH]c(=O)c23)cc1 [Example 15] : 97%

The value of inhibition at 1 µM measured for the compound O=C(c1cc(-c2nn(-c3c(F)cccc3F)c3c(Cl)c[nH]c(=O)c23)cs1)N1CCOCC1 [Example 192] turned out to be 99%

// inhibition at 1 µM value for CCC(COC)n1cc(-c2ccc(S(N)(=O)=O)cc2)c2c(=O)[nH]ccc21 (stereo not shown) [Example 17] : 69%

The measured inhibition at 1 µM associated with CC[C@@H](COC)n1nc(-c2csc(C(N)=O)c2)c2c(=O)[nH]ccc21 [Example 262] reads 92%

Sure, the documented inhibition at 1 µM for NC(=O)c1cc(-c2nn(C3CCCC3)c3c(Cl)c[nH]c(=O)c23)cs1 [Example 296] is 96%

inhibition at 1 µM reported for this compound CC1(C)CCCC1n1nc(-c2ccc(N3CCOCC3)cc2)c2c(=O)[nH]ccc21 (stereo not shown) [Example 314] : 99%

Item: O=c1[nH]cc(Cl)c2c1c(-c1cn[nH]c1)nn2-c1c(F)cccc1F [Example 177] | inhibition at 1 µM: 100%

Entry N#Cc1c[nH]c(=O)c2c(-c3ccn[nH]3)cn(C3CCCC3)c12 [Example 125, hydrochloride] , inhibition at 1 µM reported as 96%
